FYI, the data here is from PubChem BioAssay AID504397.

- Assay explanation: mammalian cell cytotoxicity, dose response, cytotoxicity control, plate reader, cherry-pick samples (AID 504397)
- Applied conditions: plate reader viability; series mostly up to 35 µM
Entries with a potency or affinity are not part of this list. Calls of active or inactive are those of the source. How the calls were made is not given here.
Measurement name: outcome

Example entries and their recorded answers appear below.
O=C(C(Cc1ccccc1)N1C(=O)c2ccccc2C1=O)N1c2ccccc2CCc2ccccc21 (configuration not stated); inactive
Cc1ccc2nc(N(CCN(C)C)C(=O)c3ccc4ccccc4c3)sc2c1; inactive
CC1CCN(Cc2c(C(=O)N/N=C/c3cccc(C(F)(F)F)c3)nnn2-c2nonc2N)CC1; inactive
Cc1ccc(N=Cc2c(O)n(C)c(=O)n(C)c2=O)nc1; inactive
CN(C(=O)COC(=O)c1cn(-c2ccccc2)nc1-c1ccccc1)C1CCS(=O)(=O)C1 (configuration not stated); inactive
Nc1nnnn1/N=C/c1ccccc1OCc1ccc(Cl)cc1Cl; inactive

Moving on to another molecule below.
[ask] Give me measured outcome, please, for this molecule: O=[N+]([O-])c1ccc(-c2cnc(SC(c3ccccc3)c3ccccc3)[nH]2)cc1
[reply] inactive
